# credit: patent US12370200B2

Test: Solubility of brexanolone by visual assessment of dissolution in various solvents
Type: physicochemical
Conditions: organic solvent or mixture, thermodynamic from solid; solvent Tetrahydrofuran (THF); RT (~22° C.); read-out: Solubility at RT
Experimental: Solubility of the supplied brexanolone was determined by visual assessment of dissolution in various solvents at RT (˜22° C.) and 40° C. Aliquots of solvent were added to a fixed amount of brexanolone (˜10 mg) at room temperature until the dissolution point or a maximum volume of 1.8 mL was reached. All samples were then heated to 40° C. for 1 h and dissolution was observed. As shown in Error!
measurement_label: solubility

-- ask Determine its reported solubility: CC(=O)[C@H]1CC[C@H]2[C@@H]3CC[C@H]4C[C@H](O)CC[C@]4(C)[C@H]3CC[C@]12C [brexanolone]
-- reply 96 to 384 mg/mL
